The entries below come with measured Ki values attached.
Target: A2A adenosine receptors (Homo sapiens)
Assay: A2A Ki binding (methodology of Murphree et al., Mol Pharmacol 2002, 61, 455-62)
recordedMetric: Ki

- CCNC(=O)[C@H]1O[C@@H](n2cnc3c(N)nc(C#CCN(C(=O)c4ccc(Cl)nc4)C4CC4)nc32)C(O)[C@@H]1O (stereo partly shown): < 1 nM
- CNC(=O)[C@H]1O[C@@H](n2cnc3c(N)nc(C#CCN(C(=O)c4ccccc4)C4CCCC4)nc32)C(O)[C@@H]1O (stereo partly shown): < 1 nM
- CNC(=O)[C@H]1O[C@@H](n2cnc3c(N)nc(C#CCN(Cc4cccs4)C(=O)c4ccccc4)nc32)C(O)[C@@H]1O (stereo partly shown): 1 to 50 nM
- Nc1nc(C#CCN(C(=O)c2ccc(Cl)nc2)C2CC2)nc2c1ncn2[C@@H]1O[C@H](C(=O)NC2CC2)[C@@H](O)C1O (stereo partly shown): < 1 nM
- CNC(=O)[C@H]1O[C@@H](n2cnc3c(N)nc(C#CCN(C)C(=O)c4ccncc4)nc32)C(O)[C@@H]1O (stereo partly shown): 1 to 50 nM
- CNC(=O)[C@H]1O[C@@H](n2cnc3c(N)nc(C#CCN(C(=O)c4ccc(OC)c(F)c4)C4CCC4)nc32)C(O)[C@@H]1O (stereo partly shown): < 1 nM
- CNC(=O)[C@H]1O[C@@H](n2cnc3c(N)nc(C#CCN(CCOC)C(=O)c4ccccc4)nc32)C(O)[C@@H]1O (stereo partly shown): < 1 nM

* * *

Biological target: A2A adenosine receptors (Homo sapiens)
pKi: −log10 of the molar value.
recordedMetric: pKi

• CNC(=O)[C@H]1O[C@@H](n2cnc3c(N)nc(C#CCN(C(=O)c4ccccc4)C4CCC4)nc32)C(O)[C@@H]1O (stereo partly shown) = > 9.00
• CCNC(=O)[C@H]1O[C@@H](n2cnc3c(N)nc(C#CCN(C)C(=O)c4ccc(F)nc4)nc32)C(O)[C@@H]1O (stereo partly shown) = > 9.00
• CNC(=O)[C@H]1O[C@@H](n2cnc3c(N)nc(C#CCN(C(=O)c4cccc(F)c4)C4CCC4)nc32)C(O)[C@@H]1O (stereo partly shown) = > 9.00
• Nc1nc(C#CCN(C(=O)c2ccccc2)C2CC2)nc2c1ncn2[C@@H]1O[C@H](C(=O)NC2CC2)[C@@H](O)C1O (stereo partly shown) = > 9.00
• CNC(=O)[C@H]1O[C@@H](n2cnc3c(N)nc(C#CCN(C(=O)c4ccc(F)cc4)C4CCC4)nc32)C(O)[C@@H]1O (stereo partly shown) = > 9.00
• CNC(=O)[C@H]1O[C@@H](n2cnc3c(N)nc(C#CCN(C)C(=O)c4cccnc4)nc32)C(O)[C@@H]1O (stereo partly shown) = 7.30 to 9.00
• Nc1nc(C#CCN(C(=O)c2ccccc2)C2CCC2)nc2c1ncn2[C@@H]1O[C@H](C(=O)NC2CC2)[C@@H](O)C1O (stereo partly shown) = > 9.00

* * *

Target: A2A adenosine receptors (Homo sapiens, UniProt P29274)
Sequence (P29274 whole entry): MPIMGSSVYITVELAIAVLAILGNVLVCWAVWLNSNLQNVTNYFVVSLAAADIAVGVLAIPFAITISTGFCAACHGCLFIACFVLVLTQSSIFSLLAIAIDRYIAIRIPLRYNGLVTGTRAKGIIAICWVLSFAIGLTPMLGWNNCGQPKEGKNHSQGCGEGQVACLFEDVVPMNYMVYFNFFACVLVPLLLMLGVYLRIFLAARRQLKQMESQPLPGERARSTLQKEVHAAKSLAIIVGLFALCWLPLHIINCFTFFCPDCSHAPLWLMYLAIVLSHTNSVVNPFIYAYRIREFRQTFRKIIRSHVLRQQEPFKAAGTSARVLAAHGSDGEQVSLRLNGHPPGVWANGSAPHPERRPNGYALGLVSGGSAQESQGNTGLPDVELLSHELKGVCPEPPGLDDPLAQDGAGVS
Assay: A2A Ki binding (methodology of Murphree et al., Mol Pharmacol 2002, 61, 455-62)
pKi: −log10 of the molar value.
recordedMetric: pKi

• CNC(=O)[C@H]1O[C@@H](n2cnc3c(N)nc(C#CCN(C)C(=O)c4ccc(F)nc4)nc32)C(O)[C@@H]1O (stereo partly shown) [Example 6] = > 9.00
• CCNC(=O)[C@H]1O[C@@H](n2cnc3c(N)nc(C#CCN(C)C(=O)c4ccc(C(F)(F)F)nc4)nc32)C(O)[C@@H]1O (stereo partly shown) [Example 28] = > 9.00
• Nc1nc(C#CCN(C(=O)Cc2ccccc2)C2CC2)nc2c1ncn2[C@@H]1O[C@H](C(=O)NC2CC2)[C@@H](O)C1O (stereo partly shown) [Example 16] = 7.30 to 9.00
• Nc1nc(C#CCNC(=O)c2ccccc2)nc2c1ncn2[C@@H]1O[C@H](C(=O)NC2CC2)[C@@H](O)C1O (stereo partly shown) [Example 5] = 7.30 to 9.00
